Below, each of the compounds is paired with its reported TGI value.
tested on: SK-MEL-5 melanoma; experiment: NCI tumour cell line growth inhibition, 48 h

Some solved cases for reference:
- compound: "C(/C=N/NC1=NCCN1)=N\\NC1=NCCN1"
  system: "SK-MEL-5 melanoma"
  readout.type: "TGI"
  result: "> 100 µM"
- compound: "O=C(Nc1nccs1)c1cc(C2=CC=CC([N+](=O)[O-])C=C2)nc(=S)[nH]1 (stereo not given)"
  system: "SK-MEL-5 melanoma"
  readout.type: "TGI"
  result: "> 100 µM"
- compound: "N#Cc1nsnc1-c1nc(-c2nsnc2C#N)nc(-c2nsnc2C#N)n1"
  system: "SK-MEL-5 melanoma"
  readout.type: "TGI"
  result: "> 100 µM"
- compound: "CNC=O"
  system: "SK-MEL-5 melanoma"
  readout.type: "TGI"
  result: "> 10000 µM"
- compound: "CC1(C)N=C(N)N=C(N)N1c1cccc(CCCCc2ccc(S(=O)(=O)F)cc2Cl)c1"
  system: "SK-MEL-5 melanoma"
  readout.type: "TGI"
  result: "16.4 µM"

Next up:
Quick check: TGI on SK-MEL-5 melanoma, item CNS(=O)(=O)NN(C)S(=O)(=O)c1ccc(Br)cc1 ?
> 100 µM
